procedureDetails: self-splicing fitness, log relative to wild type (ln ratio); higher = more splicing; Tetrahymena group I intron in knt gene, E. coli kanamycin selection, DiMSum; sequences stand for … in CUCUCU…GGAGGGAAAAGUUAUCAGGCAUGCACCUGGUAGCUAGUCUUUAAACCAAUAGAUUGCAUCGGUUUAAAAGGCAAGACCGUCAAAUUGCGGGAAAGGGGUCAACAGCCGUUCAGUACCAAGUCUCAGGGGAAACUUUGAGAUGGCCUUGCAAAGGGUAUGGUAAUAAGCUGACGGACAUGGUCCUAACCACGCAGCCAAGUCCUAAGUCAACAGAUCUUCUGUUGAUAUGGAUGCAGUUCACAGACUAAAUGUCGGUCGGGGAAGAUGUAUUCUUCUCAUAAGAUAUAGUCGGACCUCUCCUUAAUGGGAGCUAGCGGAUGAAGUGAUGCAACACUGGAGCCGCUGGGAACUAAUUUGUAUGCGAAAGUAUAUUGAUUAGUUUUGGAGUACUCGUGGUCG;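 also: selection with 25 µg/mL kanamycin versus none on LB agar overnight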
testConditions: 30 °C
# reported self-splicing fitness (ln); entries follow
outcomeMeasure: self-splicing fitness (ln)

>  <sequenceInput>
ACGAAGCAAUAUUACGUGAU

>  <quantitativeResult>
-2.04

$$$$
>  <sequenceInput>
UCUGAGCAAUAUUACGAACG

>  <quantitativeResult>
-2.04

$$$$
>  <sequenceInput>
GACCAGCAAUAUUACGAGGU

>  <quantitativeResult>
-2.95

$$$$
>  <sequenceInput>
CCACAGCAAUAUUACGCAGA

>  <quantitativeResult>
-3.08

$$$$
>  <sequenceInput>
UCAGAGCAAUAUUACGUAAG

>  <quantitativeResult>
-2.92

$$$$
